Molecular target: Tyrosyl-tRNA synthetase, putative (Trypanosoma cruzi (strain CL Brener)) (UniProt Q4DSP6)
Sequence (whole entry): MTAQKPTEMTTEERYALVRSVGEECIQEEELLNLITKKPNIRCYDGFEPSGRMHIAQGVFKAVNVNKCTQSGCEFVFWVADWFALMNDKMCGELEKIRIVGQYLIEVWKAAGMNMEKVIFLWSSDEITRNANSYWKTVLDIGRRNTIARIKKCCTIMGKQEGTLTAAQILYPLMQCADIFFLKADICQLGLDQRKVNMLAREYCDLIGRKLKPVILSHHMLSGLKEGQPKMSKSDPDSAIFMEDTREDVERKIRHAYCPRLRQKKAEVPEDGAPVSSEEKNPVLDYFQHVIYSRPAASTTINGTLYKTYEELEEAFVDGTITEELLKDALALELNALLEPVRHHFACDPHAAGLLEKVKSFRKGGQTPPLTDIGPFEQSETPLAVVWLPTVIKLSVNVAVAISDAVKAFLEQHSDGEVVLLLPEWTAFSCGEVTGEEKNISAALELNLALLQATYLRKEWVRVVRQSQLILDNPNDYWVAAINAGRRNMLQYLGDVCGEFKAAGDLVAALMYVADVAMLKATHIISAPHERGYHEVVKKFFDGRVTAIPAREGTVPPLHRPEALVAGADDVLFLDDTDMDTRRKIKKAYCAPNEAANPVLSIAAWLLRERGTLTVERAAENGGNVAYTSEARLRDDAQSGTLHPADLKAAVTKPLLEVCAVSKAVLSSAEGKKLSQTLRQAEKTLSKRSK
Assay: Trypanosoma cruzi tyrosyl tRNA synthetase (TcYRS) SOP
Type: functional
Set-up: scale not given: direction of the effect not stated beside the values
Settings: 30 µM
PROPERTY NAME: Percent Effect (%)
Unit % implied. Number only.

Some solved entries appear below for comparison.
COMPOUND	TARGET SYSTEM	Percent Effect, %
CCc1cc(C(F)(F)F)c2c(C)nn(CC(=O)O)c2n1	Tyrosyl-tRNA synthetase, putative (Trypanosoma cruzi (strain CL Brener)) (UniProt Q4DSP6)	10
CC[C@@H]1N(Cc2ccsc2)CCC[C@]12CCC(=O)N2CCOC	Tyrosyl-tRNA synthetase, putative (Trypanosoma cruzi (strain CL Brener)) (UniProt Q4DSP6)	7.5
CC(C)(O)CN1CCN(C(=O)c2cccnc2O)CC1	Tyrosyl-tRNA synthetase, putative (Trypanosoma cruzi (strain CL Brener)) (UniProt Q4DSP6)	1.21

Query: Requested read-out Percent Effect, target or system Tyrosyl-tRNA synthetase, putative (Trypanosoma cruzi (strain CL Brener)) (UniProt Q4DSP6), entry CN(C)C[C@@H]1C[C@@H]2CN(C(=O)c3ccoc3)CC[C@@H]2N1CC1CC1
Response: -2.5

Query: Requested read-out Percent Effect, target or system Tyrosyl-tRNA synthetase, putative (Trypanosoma cruzi (strain CL Brener)) (UniProt Q4DSP6), entry CCOC(=O)N1CCN(C(=O)c2sc(-c3ccc(F)cc3)nc2C)CC1
Response: 12.2

Query: Requested read-out Percent Effect, target or system Tyrosyl-tRNA synthetase, putative (Trypanosoma cruzi (strain CL Brener)) (UniProt Q4DSP6), entry CCC(O)CN1CCN(C(=O)c2sccc2OC)CC1 (stereo unspecified)
Response: 16.5

* * *

molecular target: AMP-activated protein kinase, AMPK (Homo sapiens) (UniProt P54646+O43741+P54619+Q9UGJ0+Q9Y478+Q13131+Q9UGI9); test: AMP-dependent Kinase enzyme assay. An in vitro enzyme assay that detects ADP turnover that is directly proportional to AMPK activity. This uses naive AMPK that is activated during the assay with MK-8722; assay type: functional; design: scale not given: direction of the effect not stated beside the values; settings: 30 µM
PROPERTY NAME: Percent Effect (%)
Unit % implied. Number only.

Some solved entries appear below for comparison.
COMPOUND	MEASURED
O=C1NC(C(=O)NCc2cccnc2Oc2ccc(F)cc2F)CO1 (centres undefined)	5.7
O=c1cc(N2CCCCC2)cnn1Cc1noc(C2CCCO2)n1 (centres undefined)	4.71
Cc1csc(NC(=O)NCCCN2CCC(C(N)=O)CC2)n1	1.03
CNC(=O)CCOC(=O)c1cccc(-n2cccn2)c1	7.17
CC(C)C(=O)NCC(=O)N1CCC2(CC1)c1ccccc1[C@@H](N)[C@@H]2O	3.94

Query: Data request, read-out Percent Effect, for O=C(CCN1CCOCC1)Nc1cccc(CNCc2ccsc2)c1
Response: -5.46

Query: Data request, read-out Percent Effect, for Cc1ccc(-c2cc(CN(CC(N)=O)CC(C)C)on2)cc1
Response: -6.41

Query: Data request, read-out Percent Effect, for CC(C)C1CCCN1C(=O)Nc1ccc(=O)n(C)c1 (centres undefined)
Response: 56.6

Query: Data request, read-out Percent Effect, for CCc1nn(C)c(Cl)c1CN(CCOC)Cc1cnn(C)c1
Response: 5.81

Query: Data request, read-out Percent Effect, for c1nn(C2CCCCC2)cc1-c1cncn1CCCN1CCCCC1
Response: 1.56

Query: Data request, read-out Percent Effect, for CC(C)c1nc(CN(C)C(=O)[C@H](N)Cc2ccc(Cl)cc2)cs1
Response: 2.32

Query: Data request, read-out Percent Effect, for CC(=O)N[C@H]1CCN(C(=O)c2cc(Cn3cnc4ccccc43)[nH]n2)C1
Response: -3.06

* * *

biological target: Protein translocase subunit SecA (Escherichia coli (strain K12)); assay: Assay to Identify E. coli SecA ATPase Inhibitors; assay type: functional; parameters: scale not given: direction of the effect not stated beside the values; conditions: 30 µM
Results with a measured potency or affinity are listed apart.
PROPERTY NAME: Percent Effect (%)
Unit % implied. Number only.

COMPOUND	TARGET SYSTEM	UNIT OF MEASUREMENT	MEASURED
Cc1cccc(-c2noc(CN3CCCC3Cn3cccn3)n2)c1 (stereo not drawn)	Protein translocase subunit SecA (Escherichia coli (strain K12))	%	-4.47
Cc1ccc(NC2CCN(C(=O)c3n[nH]c4ccccc34)CC2)nn1	Protein translocase subunit SecA (Escherichia coli (strain K12))	%	-2.85
COc1cc(C)nc(N2CCN(C(=O)CN(C)C3CC3)CC2)n1	Protein translocase subunit SecA (Escherichia coli (strain K12))	%	-5.5
O=C(c1ncccn1)N1C[C@H]2CCC[C@@]2(COCc2cccnc2)C1	Protein translocase subunit SecA (Escherichia coli (strain K12))	%	-6.88
N#Cc1cccc(S(=O)(=O)NC(=O)COc2ccc3c(c2)CCC3)c1	Protein translocase subunit SecA (Escherichia coli (strain K12))	%	-4.11
CCn1ccnc1CN1CCN(CC(O)c2ccccc2)CC1 (stereo not drawn)	Protein translocase subunit SecA (Escherichia coli (strain K12))	%	-1.54
Cc1ccc(-c2nc(CN3CCCC(Cn4cncn4)C3)no2)cc1 (stereo not drawn)	Protein translocase subunit SecA (Escherichia coli (strain K12))	%	-6.21
CC(C)NC(=O)N1CCC2(CC(=O)N(c3cccc(C#N)c3)C2)C1 (stereo not drawn)	Protein translocase subunit SecA (Escherichia coli (strain K12))	%	-4.66

Query: Data request, read-out Percent Effect, for CCOC1CCCN(C(=O)c2sccc2-n2cnnn2)C1 (stereo not drawn)
Response: -1.7

Query: Data request, read-out Percent Effect, for CCc1[nH]ncc1C(=O)N1CCCC(n2ccnc2C(C)C)C1 (stereo not drawn)
Response: -3.48

Query: Data request, read-out Percent Effect, for Cc1cc(OCC(=O)N2CCCC(c3ccn[nH]3)C2)no1 (stereo not drawn)
Response: -3.04

Query: Data request, read-out Percent Effect, for N#Cc1cccc(N2CC3(CCN(C(=O)c4cccnc4)C3)CC2=O)c1 (stereo not drawn)
Response: -6.73

Query: Data request, read-out Percent Effect, for COc1cc(CNCc2ccc(NC(=O)NC(C)C)cc2)cc(OC)c1
Response: -1.27

Query: Data request, read-out Percent Effect, for NC(=O)N1CCC2(CC1)CN(Cc1cccnc1)C(=O)CO2
Response: -0.758

Query: Data request, read-out Percent Effect, for CC(C)c1nc(C2CCCN2CC(=O)Nc2nncs2)no1 (stereo not drawn)
Response: -6.03

Query: Data request, read-out Percent Effect, for O=C1COC2(CCN(C(=O)c3ccco3)CC2)CN1Cc1cccnc1
Response: -3.74

* * *

biological target: Sialic acid-binding Ig-like lectin 9 (Homo sapiens); test: Hs-Siglec9 ALPHAscreen SOP 20170721; parameters: scale not given: direction of the effect not stated beside the values; conditions: 10 µM
Below is a list of entries, each paired with its recorded Percent Effect value.
Unit % implied. Number only.

Some solved entries appear below for comparison.
COMPOUND	UNIT OF MEASUREMENT	Percent Effect
COc1cc(N2CCCC(c3nccn3Cc3cscn3)C2)nc(N)n1 (stereo unspecified)	%	16.6
Nc1nc2nc(C3CCCN(C(=O)c4cscn4)C3)ccc2s1 (stereo unspecified)	%	-9.01
CCOC1CCCN(C(=O)c2sccc2-n2cnnn2)C1 (stereo unspecified)	%	-9.12
O=C(c1cnco1)N1CCCC(Cc2nccs2)C1 (stereo unspecified)	%	5.58

Query: Requested read-out Percent Effect, target or system Sialic acid-binding Ig-like lectin 9 (Homo sapiens), entry CN1CC(c2ccccc2)CC12CCN(C(=O)c1cncc(Cl)c1)CC2 (stereo unspecified)
Response: 3.4

Query: Requested read-out Percent Effect, target or system Sialic acid-binding Ig-like lectin 9 (Homo sapiens), entry O=C1COC2(CCN(C(=O)c3ccco3)CC2)CN1Cc1cccnc1
Response: -1.08
